Origin of measurements: PubChem BioAssay AID1845194

# System: 287954-098-R-J1 tumor spheroid viability
# assay-remarks: Anticancer human tumor 287954-098-R-J1 patient-derived Ewing sarcoma cell line growth inhibition
# details: second compound 0.0949 µM; first compound 0.1 µM; stronger effect = lower value; spheroids with HUVEC and MSC
# Description: Multicellular complex tumor spheroid response to DNA repair inhibitors in combination with DNA-damaging drugs This study explores the anticancer activities of DNA-damaging drugs and inhibitors of DNA damage repair, both as single agents and in combinations. […] Twenty-six patient-derived or established malignant cell lines were evaluated representing sarcoma, melanoma, small cell lung cancer (SCLC), non-small cell lung cancer (NSCLC), as well as bladder, ovarian and pancreatic cancers. […]
Catalogue of viability, T/C readings, one per entry.

molecule: Cc1cc(C)c(CNC(=O)c2cc(-c3ccc(CN4CCOCC4)cc3)cc3c2cnn3C2CCCC2)c(=O)[nH]1 + CC[C@@]1(O)C(=O)OCc2c1cc1n(c2=O)Cc2cc3c(CN(C)C)c(O)ccc3nc2-1
viability, T/C (%): 2.37
--
molecule: [2H]c1nc(C)nc([2H])c1-c1cc(NC[C@@H](C)c2cccc3c(C(=O)NC)ccnc23)ncn1 + CC[C@@]1(O)C(=O)OCc2c1cc1n(c2=O)Cc2cc3c(CN(C)C)c(O)ccc3nc2-1
viability, T/C (%): 0.66
--
molecule: CC(C)n1c(=O)n(C)c2cnc3cc(F)c(-c4ccc(OCCCN5CCCCC5)nc4)cc3c21 + CC[C@@]1(O)C(=O)OCc2c1cc1n(c2=O)Cc2cc3c(CN(C)C)c(O)ccc3nc2-1
viability, T/C (%): 1.29

====

Catalogue of viability, T/C readings, one per entry.
# Test system: 287954-098-R-J1 tumor spheroid viability
# assay-remarks: Anticancer human tumor 287954-098-R-J1 cell line growth inhibition;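 also: spheroids exposed to compound for 7 days before viability readout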;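 as to viability, T/C: luminescent signal taken as surrogate of viable cell content; 100% = DMSO vehicle control viability and lower means growth inhibition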
# details: second compound 0.0949 µM; first compound 0.3 µM; stronger effect = lower value; spheroids with HUVEC and MSC
measured-attribute: viability, T/C (%)

molecule: O=C(c1cc(Cc2n[nH]c(=O)c3ccccc23)ccc1F)N1CCN(C(=O)C2CC2)CC1 + CC[C@@]1(O)C(=O)OCc2c1cc1n(c2=O)Cc2cc3c(CN(C)C)c(O)ccc3nc2-1
reported-value: 1.78
//
molecule: CNCc1ccc(-c2cc(-c3nc(-c4ccc(S(=O)(=O)C(C)C)cc4)cnc3N)on2)cc1 + CC[C@@]1(O)C(=O)OCc2c1cc1n(c2=O)Cc2cc3c(CN(C)C)c(O)ccc3nc2-1
reported-value: 0.97
//
molecule: Cn1ncnc1[C@H]1c2n[nH]c(=O)c3cc(F)cc(c23)N[C@@H]1c1ccc(F)cc1 + CC[C@@]1(O)C(=O)OCc2c1cc1n(c2=O)Cc2cc3c(CN(C)C)c(O)ccc3nc2-1
reported-value: 1.75
//
molecule: Cc1sc2c(c1C)C(c1ccc(Cl)cc1)=NC(CC(=O)Nc1ccc(O)cc1)c1nnc(C)n1-2 (centres undefined) + CC[C@@]1(O)C(=O)OCc2c1cc1n(c2=O)Cc2cc3c(CN(C)C)c(O)ccc3nc2-1
reported-value: 1.32

====

# Test system: 287954-098-R-J1 tumor spheroid viability
# assay-remarks: Anticancer human tumor 287954-098-R-J1 cell line growth inhibition;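 also: spheroids exposed to compound for 7 days before viability readout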;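 as to viability, T/C: luminescent signal taken as surrogate of viable cell content; 100% = DMSO vehicle control viability and lower means growth inhibition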
# details: second compound 10 µM; first compound 0.3 µM; stronger effect = lower value; spheroids with HUVEC and MSC
measured-attribute: viability, T/C (%)

compound: O=C(c1cc(Cc2n[nH]c(=O)c3ccccc23)ccc1F)N1CCN(C(=O)C2CC2)CC1 + Cn1nnc2c(C(N)=O)ncn2c1=O
measured-attribute: viability, T/C
reported-value: 107
--
compound: Cn1ncnc1[C@H]1c2n[nH]c(=O)c3cc(F)cc(c23)N[C@@H]1c1ccc(F)cc1 + Cn1nnc2c(C(N)=O)ncn2c1=O
measured-attribute: viability, T/C
reported-value: 89.2
--
compound: Cc1sc2c(c1C)C(c1ccc(Cl)cc1)=NC(CC(=O)Nc1ccc(O)cc1)c1nnc(C)n1-2 (centres undefined) + Cn1nnc2c(C(N)=O)ncn2c1=O
measured-attribute: viability, T/C
reported-value: 100
--
compound: CNCc1ccc(-c2cc(-c3nc(-c4ccc(S(=O)(=O)C(C)C)cc4)cnc3N)on2)cc1 + Cn1nnc2c(C(N)=O)ncn2c1=O
measured-attribute: viability, T/C
reported-value: 105

====

# System: 287954-098-R-J1 tumor spheroid viability
# assay-remarks: Anticancer human tumor 287954-098-R-J1 cell line growth inhibition;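 also: spheroids exposed to compound for 7 days before viability readout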;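 as to viability, T/C: luminescent signal taken as surrogate of viable cell content; 100% = DMSO vehicle control viability and lower means growth inhibition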
# details: second compound 0.3 µM; first compound 10 µM; stronger effect = lower value; spheroids with HUVEC and MSC

compound: CC(C)n1c(=O)n(C)c2cnc3cc(F)c(-c4ccc(OCCCN5CCCCC5)nc4)cc3c21 + CC[C@@]1(O)C(=O)OCc2c1cc1n(c2=O)Cc2cc3c(CN(C)C)c(O)ccc3nc2-1
measured-target: 287954-098-R-J1 tumor spheroid viability
endpoint-unit: %
viability, T/C: 0.58

compound: CC1COCCN1c1cc(-c2ccnn2C)c2ccnc(-c3ccn[nH]3)c2n1 (stereo unspecified) + CC[C@@]1(O)C(=O)OCc2c1cc1n(c2=O)Cc2cc3c(CN(C)C)c(O)ccc3nc2-1
measured-target: 287954-098-R-J1 tumor spheroid viability
endpoint-unit: %
viability, T/C: 0.67

compound: COc1cc(C)[nH]c(=O)c1CN1CCc2c(Cl)cc(C(OC)C3COC3)c(Cl)c2C1=O (stereo unspecified) + CC[C@@]1(O)C(=O)OCc2c1cc1n(c2=O)Cc2cc3c(CN(C)C)c(O)ccc3nc2-1
measured-target: 287954-098-R-J1 tumor spheroid viability
endpoint-unit: %
viability, T/C: 1.57

compound: COc1ccc([C@@H](O)c2cc(-c3ncnc4cc(N5CCOCC5)ccc34)c(F)cc2Cl)nn1 + CC[C@@]1(O)C(=O)OCc2c1cc1n(c2=O)Cc2cc3c(CN(C)C)c(O)ccc3nc2-1
measured-target: 287954-098-R-J1 tumor spheroid viability
endpoint-unit: %
viability, T/C: 0.41

compound: Cc1cc(C)c(CNC(=O)c2cc(-c3ccc(CN4CCOCC4)cc3)cc3c2cnn3C2CCCC2)c(=O)[nH]1 + CC[C@@]1(O)C(=O)OCc2c1cc1n(c2=O)Cc2cc3c(CN(C)C)c(O)ccc3nc2-1
measured-target: 287954-098-R-J1 tumor spheroid viability
endpoint-unit: %
viability, T/C: 1.61

compound: [2H]c1nc(C)nc([2H])c1-c1cc(NC[C@@H](C)c2cccc3c(C(=O)NC)ccnc23)ncn1 + CC[C@@]1(O)C(=O)OCc2c1cc1n(c2=O)Cc2cc3c(CN(C)C)c(O)ccc3nc2-1
measured-target: 287954-098-R-J1 tumor spheroid viability
endpoint-unit: %
viability, T/C: 0.57

====

# System: 287954-098-R-J1 tumor spheroid viability
# assay-remarks: Anticancer human tumor 287954-098-R-J1 cell line growth inhibition;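 also: spheroids exposed to compound for 7 days before viability readout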;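 as to viability, T/C: luminescent signal taken as surrogate of viable cell content; 100% = DMSO vehicle control viability and lower means growth inhibition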
# details: second compound 30 pM; first compound 0.3 µM; stronger effect = lower value; spheroids with HUVEC and MSC
measured-attribute: viability, T/C (%)

molecule: Cc1sc2c(c1C)C(c1ccc(Cl)cc1)=NC(CC(=O)Nc1ccc(O)cc1)c1nnc(C)n1-2 (centres undefined) + COc1cc2c(cc1O)CCNC21CSC2c3c(OC(C)=O)c(C)c4c(c3C(COC1=O)N1C(O)C3Cc5cc(C)c(OC)c(O)c5C(C21)N3C)OCO4
measured-attribute: viability, T/C
reported-value: 97.2
--
molecule: Cn1ncnc1[C@H]1c2n[nH]c(=O)c3cc(F)cc(c23)N[C@@H]1c1ccc(F)cc1 + COc1cc2c(cc1O)CCNC21CSC2c3c(OC(C)=O)c(C)c4c(c3C(COC1=O)N1C(O)C3Cc5cc(C)c(OC)c(O)c5C(C21)N3C)OCO4
measured-attribute: viability, T/C
reported-value: 97.6
--
molecule: O=C(c1cc(Cc2n[nH]c(=O)c3ccccc23)ccc1F)N1CCN(C(=O)C2CC2)CC1 + COc1cc2c(cc1O)CCNC21CSC2c3c(OC(C)=O)c(C)c4c(c3C(COC1=O)N1C(O)C3Cc5cc(C)c(OC)c(O)c5C(C21)N3C)OCO4
measured-attribute: viability, T/C
reported-value: 108
--
molecule: CNCc1ccc(-c2cc(-c3nc(-c4ccc(S(=O)(=O)C(C)C)cc4)cnc3N)on2)cc1 + COc1cc2c(cc1O)CCNC21CSC2c3c(OC(C)=O)c(C)c4c(c3C(COC1=O)N1C(O)C3Cc5cc(C)c(OC)c(O)c5C(C21)N3C)OCO4
measured-attribute: viability, T/C
reported-value: 94.5

====

# Tested on: 287954-098-R-J1 tumor spheroid viability
# assay-remarks: Anticancer human tumor 287954-098-R-J1 cell line growth inhibition;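 also: spheroids exposed to compound for 7 days before viability readout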
# details: curve of first compound; second compound 31.6 µM; spheroids with HUVEC and MSC
measured-attribute: log10(IC50) (log10 of the value in nM)

compound: CNCc1ccc(-c2cc(-c3nc(-c4ccc(S(=O)(=O)C(C)C)cc4)cnc3N)on2)cc1 + Cn1nnc2c(C(N)=O)ncn2c1=O
measured-target: 287954-098-R-J1 tumor spheroid viability
log10(IC50): 2.60
//
compound: Cc1sc2c(c1C)C(c1ccc(Cl)cc1)=NC(CC(=O)Nc1ccc(O)cc1)c1nnc(C)n1-2 (stereo not given) + Cn1nnc2c(C(N)=O)ncn2c1=O
measured-target: 287954-098-R-J1 tumor spheroid viability
log10(IC50): 2.80
//
compound: Cn1ncnc1[C@H]1c2n[nH]c(=O)c3cc(F)cc(c23)N[C@@H]1c1ccc(F)cc1 + Cn1nnc2c(C(N)=O)ncn2c1=O
measured-target: 287954-098-R-J1 tumor spheroid viability
log10(IC50): 1.76
//
compound: O=C(c1cc(Cc2n[nH]c(=O)c3ccccc23)ccc1F)N1CCN(C(=O)C2CC2)CC1 + Cn1nnc2c(C(N)=O)ncn2c1=O
measured-target: 287954-098-R-J1 tumor spheroid viability
log10(IC50): 3.53
//
compound: CC1COCCN1c1cc(-c2ccnn2C)c2ccnc(-c3ccn[nH]3)c2n1 (stereo not given) + Cn1nnc2c(C(N)=O)ncn2c1=O
measured-target: 287954-098-R-J1 tumor spheroid viability
log10(IC50): 1.99
